Molecular target: full-length androgen receptor (HEK293 cells stably expressing) (Homo sapiens)
Sequence (P10275 whole entry): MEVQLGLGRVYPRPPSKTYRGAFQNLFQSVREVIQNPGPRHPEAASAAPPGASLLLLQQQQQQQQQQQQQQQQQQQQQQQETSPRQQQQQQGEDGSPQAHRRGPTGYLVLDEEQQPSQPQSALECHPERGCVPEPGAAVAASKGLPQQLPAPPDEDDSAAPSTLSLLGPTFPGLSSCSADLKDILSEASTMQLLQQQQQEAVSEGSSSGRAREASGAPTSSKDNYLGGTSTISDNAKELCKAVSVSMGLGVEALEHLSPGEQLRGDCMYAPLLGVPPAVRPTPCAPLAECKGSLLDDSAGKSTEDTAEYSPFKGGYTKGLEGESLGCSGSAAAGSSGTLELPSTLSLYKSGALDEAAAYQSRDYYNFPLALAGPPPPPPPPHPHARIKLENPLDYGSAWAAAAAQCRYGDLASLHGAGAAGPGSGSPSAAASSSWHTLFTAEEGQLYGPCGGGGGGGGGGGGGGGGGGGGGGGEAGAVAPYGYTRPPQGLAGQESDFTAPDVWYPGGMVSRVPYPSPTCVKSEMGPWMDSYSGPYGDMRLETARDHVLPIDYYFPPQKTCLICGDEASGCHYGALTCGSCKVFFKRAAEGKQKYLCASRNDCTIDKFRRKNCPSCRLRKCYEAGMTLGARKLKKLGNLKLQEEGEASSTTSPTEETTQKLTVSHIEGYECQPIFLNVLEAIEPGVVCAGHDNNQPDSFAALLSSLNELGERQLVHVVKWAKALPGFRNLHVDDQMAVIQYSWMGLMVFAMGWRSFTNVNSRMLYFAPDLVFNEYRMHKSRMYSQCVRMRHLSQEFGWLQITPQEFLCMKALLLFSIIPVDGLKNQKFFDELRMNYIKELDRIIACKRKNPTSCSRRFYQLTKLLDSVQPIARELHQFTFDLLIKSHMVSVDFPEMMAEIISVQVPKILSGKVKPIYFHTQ
Test: AR antagonism assay (luciferase reporter)
Numbered stars: 1 amine (or outer) side, 2 acyl side, 3 side chain; on linkers, the order of the positions; unused ones are H or OH. Square brackets hold non-standard residues; d marks the D form. Peptide text beside a SMILES is read from it. * marks the point of attachment. X1 = CC(=O)O[C@]1(C(C)=O)CC[C@H]2[C@@H]3CCC4=CC(=O)CCC4=C3[C@@H](c3ccc(*)cc3)C[C@@]21C; Exatecan = CC[C@@]1(O)C(=O)OCc2c1cc1n(c2=O)Cc2c-1nc1cc(F)c(C)c3c1c2[C@@H](N*)CC3; NHCH2OCH2CO = O=C(COCN[*:1])[*:2]; Sar = CNCC(=O)O
Let's look at some compounds and their measured IC50.

compound | experimental-target | IC50
CC[C@@]1(O)C(=O)OCc2c1cc1n(c2=O)Cc2c-1nc1cc(F)c(C)c3c1c2[C@@H](NC(=O)COCNC(=O)CNC(=O)[C@H](Cc1ccccc1)NC(=O)CNC(=O)CN(C)c1ccc([C@H]2C[C@@]4(C)[C@@H](CC[C@]4(OC(C)=O)C(C)=O)[C@@H]4CCC5=CC(=O)CCC5=C42)cc1)CC3 [Compound 34] (X1-[Sar]GFG[NHCH2OCH2CO]-Exatecan) | full-length androgen receptor (HEK293 cells stably expressing) (Homo sapiens) | > 1000 nM
CC[C@@]1(O)C(=O)OCc2c1cc1n(c2=O)Cc2c-1nc1cc(F)c(C)c3c1c2[C@@H](NC(=O)CN1CCN(C(=O)CCCCCC2CCN(c4ccc(C(=O)N[C@H]5CC[C@H](N(C)c6ccc(C#N)c(Cl)c6)CC5)nn4)CC2)CC1)CC3 | full-length androgen receptor (HEK293 cells stably expressing) (Homo sapiens) | > 1000 nM
CC[C@@]1(O)C(=O)OCc2c1cc1n(c2=O)Cc2cc3c(CN(C)C)c(OC(=O)N4CCN(CCCCCCO[C@H]5CC[C@H]6[C@@H]7CCC8=CC(=O)CCC8=C7CC[C@]56C)CC4)ccc3nc2-1 | full-length androgen receptor (HEK293 cells stably expressing) (Homo sapiens) | 101 to 1000 nM
CC[C@@]1(OC(=O)N2CCN(CC3CCN(c4ccc(C(=O)N[C@H]5CC[C@H](Oc6ccc(C#N)c(Cl)c6C)CC5)nn4)CC3)CC2)C(=O)OCc2c1cc1n(c2=O)Cc2cc3cc(OC)ccc3nc2-1 | full-length androgen receptor (HEK293 cells stably expressing) (Homo sapiens) | > 1000 nM

###

System: T47D cells
Experiment: Cell viability assay (CellTiterGlo)
Type: cell-based
Details: Homo sapiens, 144 h, read-out: T47D (IC50, nM)
Numbered stars: 1 amine (or outer) side, 2 acyl side, 3 side chain; on linkers, the order of the positions; unused ones are H or OH. Square brackets hold non-standard residues; d marks the D form. Peptide text beside a SMILES is read from it. * marks the point of attachment. X1 = CC(=O)O[C@]1(C(C)=O)CC[C@H]2[C@@H]3CCC4=CC(=O)CCC4=C3[C@@H](c3ccc(*)cc3)C[C@@]21C; Exatecan = CC[C@@]1(O)C(=O)OCc2c1cc1n(c2=O)Cc2c-1nc1cc(F)c(C)c3c1c2[C@@H](N*)CC3; NHCH2OCH2CO = O=C(COCN[*:1])[*:2]; Sar = CNCC(=O)O
measurement-kind: IC50

molecule | reported-value
CC[C@@]1(O)C(=O)OCc2c1cc1n(c2=O)Cc2cc3c(CN(C)C)c(OC(=O)N4CCN(CCCCCN(C)c5ccc([C@H]6C[C@@]7(C)[C@@H](CC[C@]7(OC(C)=O)C(C)=O)[C@@H]7CCC8=CC(=O)CCC8=C76)cc5)CC4)ccc3nc2-1 [Compound 8] | 10 to 100 nM
CC[C@@]1(O)C(=O)OCc2c1cc1n(c2=O)Cc2cc3c(CN(C)C)c(OC(=O)N(C)Cc4ccc(NC(=O)[C@H](CCCNC(N)=O)NC(=O)[C@@H](NCCCCCCN(C)c5ccc([C@H]6C[C@@]7(C)[C@@H](CC[C@]7(OC(C)=O)C(C)=O)[C@@H]7CCC8=CC(=O)CCC8=C76)cc5)C(C)C)cc4)ccc3nc2-1 [Compound No. 60] | > 1000 nM
CC[C@@]1(O)C(=O)OCc2c1cc1n(c2=O)Cc2cc3c(CN4CCN(C)CC4)c(OC(=O)N4CCN(CCCCCCN(C)c5ccc([C@H]6C[C@@]7(C)[C@@H](CC[C@]7(OC(C)=O)C(C)=O)[C@@H]7CCC8=CC(=O)CCC8=C76)cc5)CC4)ccc3nc2-1 [Compound 5] | 101 to 1000 nM
CC[C@@]1(O)C(=O)OCc2c1cc1n(c2=O)Cc2cc3c(CN(C)C)c(OC(=O)N4CCN(CCCCCCCCN(C)c5ccc([C@H]6C[C@@]7(C)[C@@H](CC[C@]7(OC(C)=O)C(C)=O)[C@@H]7CCC8=CC(=O)CCC8=C76)cc5)CC4)ccc3nc2-1 [Compound 7] | 101 to 1000 nM
CC[C@@]1(O)C(=O)OCc2c1cc1n(c2=O)Cc2c-1nc1cc(F)c(C)c3c1c2[C@@H](NC(=O)OCc1ccc(NC(=O)[C@H](CCCNC(N)=O)NC(=O)[C@@H](NCCCCCCN(C)c2ccc([C@H]4C[C@@]5(C)[C@@H](CC[C@]5(OC(C)=O)C(C)=O)[C@@H]5CCC6=CC(=O)CCC6=C54)cc2)C(C)C)cc1)CC3 [Compound 59] | 10 to 100 nM
CCCCCCC(=O)O[C@]1(CC)C(=O)OCc2c1cc1n(c2=O)Cc2cc3c(CN(C)C)c(OC(=O)N4CCN(CCCCCCN(C)c5ccc([C@H]6C[C@@]7(C)[C@@H](CC[C@]7(OC(C)=O)C(C)=O)[C@@H]7CCC8=CC(=O)CCC8=C76)cc5)CC4)ccc3nc2-1 [Compound No. 12] | > 1000 nM
CC[C@@]1(O)C(=O)OCc2c1cc1n(c2=O)Cc2c-1nc1cc(F)c(C)c3c1c2[C@@H](NC(=O)COCNC(=O)CNC(=O)[C@H](Cc1ccccc1)NC(=O)CNC(=O)CN(C)c1ccc([C@H]2C[C@@]4(C)[C@@H](CC[C@]4(OC(C)=O)C(C)=O)[C@@H]4CCC5=CC(=O)CCC5=C42)cc1)CC3 [Compound 34] (X1-[Sar]GFG[NHCH2OCH2CO]-Exatecan) | 101 to 1000 nM
